Hello, the source for this data is the supplement of paper PMC13380429, in case you need it.

inhibition of SARS-CoV-2 cytopathic effect for assorted molecules
- System: Vero E6 infected with SARS-CoV-2
- Assay notes: inhibition of SARS-CoV-2 cytopathic effect; higher = more antiviral protection, active = above 15
- Condition info: 833.33 nM; 48 h
Parameter: inhibition of SARS-CoV-2 cytopathic effect (%)

Molecule: CN1CCN(c2cccc(Nc3nc4c(-c5ccc(S(C)(=O)=O)cc5)cccn4n3)c2)CC1
Study target: Vero E6 infected with SARS-CoV-2
Assay result: -0.58

Molecule: C[n+]1cc2c3c(ccc2c2ccc4cc5c(cc4c21)OCO5)OCO3 [sanguinarium-chloride]
Study target: Vero E6 infected with SARS-CoV-2
Assay result: 2.52

Molecule: O=C(NCCCNc1nc(Nc2cccc(NC(=O)N3CCCC3)c2)ncc1I)c1cccs1
Study target: Vero E6 infected with SARS-CoV-2
Assay result: -5.21

Molecule: C/C=C(/C(=C/C)c1ccc(O)cc1)c1ccc(O)cc1
Study target: Vero E6 infected with SARS-CoV-2
Assay result: 0.84
